Values compiled from patent US20220323406A1.

# System: ENR+CD organoids (ISC to Paneth cell differentiation)
# assayRemarks: Primary screen: basal (non-stimulated) lysozyme secretion LYZ.NS, 2.5-D 384-well ENR+CD organoid differentiation
# Format: cell-based, mouse
# testParameters: primary screen, dose 0.08 uM
Note to self: class labels come from recorded Z.LYZ.NS (standard z score), ranges listed here: low range = under 0.2, mid range = from 0.2 up to 0.7, high range = 0.7 and over

CCOC(=O)CCNc1cc(N2CCc3ccccc3CC2)nc(-c2ccccn2)n1.Cl [GSK J4 HCl]    mid range
O=c1oc2cc(O)ccc2s1 [Tioxolone]    high range
CN(Cc1cnc2nc(N)nc(N)c2n1)c1ccc(C(=O)N[C@@H](CCC(=O)O)C(=O)O)cc1 [Methotrexate]    low range

Problem: Kindly identify the class of CC(=O)Nc1nc2c(Oc3cc(-c4ccc(C(F)(F)F)cc4)ncn3)cccc2s1 [AMG-517] .
Result: low range

Problem: Again, but for COc1cc(N2CCC(N)CC2)ccc1Nc1ncc(Cl)c(-c2c[nH]c3ccccc23)n1 [AZD3463]
Result: low range

Problem: What do you get for O=C(Oc1cc(S(=O)(=O)c2ccccc2)ccc1[N+](=O)[O-])c1ccc(Cl)cc1 [BTB06584] ?
Result: high range

Problem: Follow-up entry: Cc1cc(Nc2ncc(Cl)c(Nc3ccccc3S(=O)(=O)C(C)C)n2)c(OC(C)C)cc1C1CCNCC1 [LDK378]
Result: mid range

Problem: Moving on to CC#CCn1c(N2CCC[C@@H](N)C2)nc2c1c(=O)n(Cc1nc(C)c3ccccc3n1)c(=O)n2C [Linagliptin]
Result: high range

---

# Test system: ENR+CD organoids (ISC to Paneth cell differentiation)
# assayRemarks: Primary screen: CCh-stimulated lysozyme secretion LYZ.S, 2.5-D 384-well ENR+CD organoid differentiation
# Assay type: cell-based, mouse
# testParameters: primary screen, dose 2.00 uM
Counter-ions that a name gives are not always drawn.
measurementKind: Dose.FC.LYZ.S (log2 fold change)
Give bare numbers, in log2 fold change.

The examples below pair each entry with its known result.
CCn1c2ccccc2c2cc(Nc3ccnc(NCCCN4CCOCC4)n3)ccc21    −0.011
Nc1nc(N)c2nc(-c3cccc(O)c3)c(-c3cccc(O)c3)nc2n1    −0.019
O=C(O)c1cccc(-c2noc(-c3ccccc3F)n2)c1    0.058
Cc1cc(Nc2cc(N3CCN(C)CC3)nc(Sc3ccc(NC(=O)C4CC4)cc3)n2)n[nH]1    −0.308

// input: 5 compounds below; output: Dose.FC.LYZ.S for each
1. O=c1[nH]c2ccc(Cl)cc2c(N[C@@H]2CN3CCC2CC3)c1-c1nc2ccccc2[nH]1
2. COc1cc(N2CCN(C)CC2)ccc1Nc1nccc(-c2cn(C)c3cnccc23)n1
3. CCCCCCCCc1ccc(CCC(N)(CO)CO)cc1.Cl [Fingolimod (FTY720) HCl]
4. O=C(N/N=C/c1ccc(O)c(O)c1)c1cc2ccccc2cc1O
5. N#CC1(c2ccc(NC(=O)c3cccnc3NCc3ccncc3)cc2)CCCC1

Result:
1: −0.352; 2: 0.097; 3: −0.060; 4: −0.024; 5: 0.112

For each of the compounds below, note its Dose.FC.LYZ.S.
1. COCCCC/C(=N\OCCN)c1ccc(C(F)(F)F)cc1 [Fluvoxamine maleate]
2. C[C@]12CC[C@@H]3c4ccc(O)cc4C[C@@H](CCCCCCCCC[S+]([O-])CCCC(F)(F)C(F)(F)F)[C@H]3[C@@H]1CC[C@@H]2O (stereo partly drawn)
3. CCOC(=O)C1=C(C)NC(C)=C(C(=O)OC)C1c1cccc(Cl)c1Cl (stereo not drawn)
4. NC(=O)Nc1cc(-c2cccc(F)c2)sc1C(=O)N[C@H]1CCCNC1
5. COc1cc(Nc2c(C#N)cnc3cc(OCCCN4CCN(C)CC4)c(OC)cc23)c(Cl)cc1Cl [Bosutinib (SKI-606), Bosutinib, reference compound]
6. COc1ccc(C(=O)N2CCCC2=O)cc1

Result:
1: 0.108; 2: −0.024; 3: −0.003; 4: −0.342; 5: −0.058; 6: 0.005

---

# System: ENR+CD organoids (ISC to Paneth cell differentiation)
# assayRemarks: Primary screen: CCh-stimulated lysozyme secretion LYZ.S, 2.5-D 384-well ENR+CD organoid differentiation
# Type: cell-based, mouse
# testParameters: primary screen, dose 10.00 uM
Define the label as true (1) when Dose.FC.LYZ.S is strictly less than 0.02 log2 fold change and as false (0) in all remaining cases.

Please review the following examples before continuing.
CN1CCCCC1Cn1cc(C(=O)c2cc([N+](=O)[O-])ccc2I)c2ccccc21 (stereo not shown) [AM1241]    true (1)
O=C(Oc1cc(S(=O)(=O)c2ccccc2)ccc1[N+](=O)[O-])c1ccc(Cl)cc1 [BTB06584]    true (1)
NC(=O)C1CCCc2c1[nH]c1ccc(Cl)cc21 (stereo not shown) [EX 527 (Selisistat)]    true (1)
CS(=O)(=O)c1ccc(-c2cnc(N)c(C(=O)Nc3ccccc3)n2)cc1 [VE-821]    true (1)
CN(C)C(=O)[C@H](O)[C@H](Cc1ccccc1)NC(=O)c1cc2cc(Cl)ccc2[nH]1 [CP-91149]    true (1)
O=c1ncccn1[C@@H]1O[C@H](CO)[C@@H](O)[C@H]1O [Zebularine]    false (0)

// switching to the query compound
Problem: Check if Dose.FC.LYZ.S falls below 0.02 log2 fold change for CC(=O)Nc1nc2c(Oc3cc(-c4ccc(C(F)(F)F)cc4)ncn3)cccc2s1 [AMG-517] .
Result: false (0)

---

# System: ENR+CD organoids (ISC to Paneth cell differentiation)
# assayRemarks: Primary screen: basal (non-stimulated) lysozyme secretion LYZ.NS, 2.5-D 384-well ENR+CD organoid differentiation
# Type: cell-based, mouse
# testParameters: primary screen, dose 10.00 uM, standard z score
# Source text: High-throughput screening.
Where a name gives a salt, the structure may show the parent alone.
measurementKind: Z.LYZ.NS

Provide each entry's Z.LYZ.NS from the list below.
1. CCCc1nc2c(C)cc(-c3nc4ccccc4n3C)cc2n1Cc1ccc(-c2ccccc2C(=O)O)cc1
2. COc1ccc(C(=O)Nc2sc3c(c2C(N)=O)CCCC3)cc1OC
3. O=C(NOC[C@H](O)CO)c1ccc(F)c(F)c1Nc1ccc(I)cc1F
4. COc1ccc(-c2nc3ccc(C4=NNC(=O)CC4C)cc3[nH]2)cc1 (stereo not drawn)
5. C#CCN[C@@H]1CCc2ccccc21 [Rasagiline Mesylate]
6. NC(=O)N1c2ccccc2CC(=O)c2ccccc21 [Oxcarbazepine]

Result:
1. −0.060
2. −0.072
3. −1.625
4. −0.577
5. −0.294
6. −0.527

Give Z.LYZ.NS for all compounds that follow.
1. CN(C)CCc1c[nH]c2ccc(Cn3cncn3)cc12 [Rizatriptan Benzoate]
2. CCn1c(N)c(C(=O)NC)c(=O)c2ccc(C#C[C@@](C)(O)COC)nc21
3. O=C(/C=C/c1ccccc1)NC(NC(=S)Nc1ccc(Cl)cc1)C(Cl)(Cl)Cl (stereo not drawn)

Result:
−0.003
−0.766
−2.142

---

# Test system: ENR+CD organoids (ISC to Paneth cell differentiation)
# assayRemarks: Primary screen: basal (non-stimulated) lysozyme secretion LYZ.NS, 2.5-D 384-well ENR+CD organoid differentiation
# Type: cell-based, mouse
# testParameters: primary screen, dose 0.40 uM
Structures can show the parent of a compound that is named as a salt.
measurementKind: Dose.FC.LYZ.NS (log2 fold change)
Numbers only, in log2 fold change.

Would you mind listing Dose.FC.LYZ.NS for each of the following compounds?
1. CCN[C@H]1CN(CCCOC)S(=O)(=O)c2sc(S(N)(=O)=O)cc21 [Brinzolamide]
2. Cc1c(-c2ccc(O)cc2)n(Cc2ccc(OCCN3CCCCCC3)cc2)c2ccc(O)cc12 [Bazedoxifene HCl]
3. CCOc1ccccc1-n1c(C(C)N2CCN(C(=O)COc3ccc(Cl)cc3)CC2)nc2ccccc2c1=O (stereo not drawn) [Erastin]
4. NC(=O)c1ncn([C@@H]2O[C@H](CO)[C@@H](O)[C@H]2O)c1N [Acadesine]
5. c1ccc(CNc2nc(NCc3ccccc3)c3ccccc3n2)cc1 [DBeQ]
6. NC(=O)C1CCCc2c1[nH]c1ccc(Cl)cc21 (stereo not drawn) [EX 527 (Selisistat)]

Result:
0.084
0.026
0.158
−0.016
0.064
0.059

---

Please provide measured Dose.FC.LYZ.NS for the entries that follow.
# Test system: ENR+CD organoids (ISC to Paneth cell differentiation)
# assayRemarks: Primary screen: basal (non-stimulated) lysozyme secretion LYZ.NS, 2.5-D 384-well ENR+CD organoid differentiation
# Assay type: cell-based, mouse
# testParameters: primary screen, dose 10.00 uM, FC relative to plate median
// return the numeric value with its unit appended

Count: 3. Required value per item: Dose.FC.LYZ.NS.
1. Cc1ccc(S(=O)(=O)Cc2nc(-c3ccc(C(=O)NCc4cccnc4)cc3)oc2C)cc1
2. Cc1[nH]c(/C=C2\C(=O)Nc3ccc(S(=O)(=O)N(C)c4cccc(Cl)c4)cc32)c(C)c1C(=O)N1CCN(C)CC1
3. CCC(=O)NCC[C@@H]1CCc2ccc3c(c21)CCO3

Result:
1: −0.177 log2 fold change; 2: −0.207 log2 fold change; 3: 0.007 log2 fold change
